src = PubChem BioAssay

biological target: Follistatin (Homo sapiens) (UniProt P19883); assay: follistatin binders on small-molecule microarrays, primary screen, biochemical, small-molecule microarray, 635/667 nm fluorescence (AID 1132); details: FST binding, 635 nm fluorescence, higher = more signal
Sequence (P19883 whole entry, looked up): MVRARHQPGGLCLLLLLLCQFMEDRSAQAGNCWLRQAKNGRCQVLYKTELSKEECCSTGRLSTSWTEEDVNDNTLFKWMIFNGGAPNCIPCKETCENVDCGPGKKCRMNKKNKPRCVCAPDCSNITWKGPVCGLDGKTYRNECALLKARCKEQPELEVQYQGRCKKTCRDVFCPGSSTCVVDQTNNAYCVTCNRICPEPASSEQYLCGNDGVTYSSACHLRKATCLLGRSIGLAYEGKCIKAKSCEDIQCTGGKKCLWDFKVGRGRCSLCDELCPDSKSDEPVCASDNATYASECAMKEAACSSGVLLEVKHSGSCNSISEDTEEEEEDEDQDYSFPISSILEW
Overview of reported composite z-score across a group of molecules:

The cases that follow already have their composite z-score on record.
MOLECULE | DATA_VALUE
C=CCNC(=O)[C@H]1[C@@H]2C(=O)O[C@@H](c3ccccc3)[C@@H](c3ccccc3)N2[C@@H](c2ccc(O)cc2)[C@]12C(=O)Nc1ccccc12 | 0.719
COC(=O)C1=CC(c2ccc(CO)cc2)=CC(C2CC2)N(Cc2cc3c(cc2Br)OCO3)C=C1C(=O)OC (centres undefined) | 0.62
O=C1OC[C@@H](c2ccccc2)n2cc(/C=C/c3ccccc3)cc21 | -0.324

Query: Tell us which composite z-score value is on record for `COc1cccc(C)c1NC(=O)O[C@H]1[C@H](OC(=O)Nc2ccc3c(c2)OCO3)[C@H](OC(=O)Nc2ccc3c(c2)OCO3)[C@@H](OC)O[C@@H]1CO`
Result: 1.3

###

assay: S. cerevisiae growth modulation with rapamycin, primary screen, strain BY4716, OD600, 96 h (AID 1091); conditions: higher = more signal, called active from +8 up or from −8 down; also: test concentration not given here
I would appreciate it if you labelled entries met when z-score is -0.2 or higher, otherwise not met.

Example entries and their recorded answers appear below.
COMPOUND | CAT
CC(=O)NCCCC[C@@H]1NC(=O)[C@H]2C[C@@H](C(=O)NCCCCCN)[C@@H](c3ccc(O)cc3)N2C1=O | met
COc1ccc([Si](C)(C)[C@H]2[C@H](CC(=O)N(CCO)Cc3ccccc3)O[C@@]3(C(=O)N(Cc4ccc(N5C(=O)c6cccc7cccc5c67)cc4)c4ccccc43)[C@@H]2C)cc1 | met
CC1CC/C=C\[C@H]2OC34C=CCN(CCN5CCOCC5)C(=O)[C@H]3N(C(CO)C(C)C)C(=O)[C@@H]4C2C(=O)O1 (stereo partly specified) | met
O=C1C2C=CC(C(O)c3ccccn3)N(Nc3ccc([N+](=O)[O-])cc3)C2C(=O)N1c1ccccc1 (stereo unspecified) | not met

Query: Is reported z-score greater than or equal to -0.2 here: `C=C(COC)/C(=C/C[C@@H](OC(C)=O)c1cccc(OCCO)c1)c1cnc2ccccc2c1`
Result: not met

Query: Is reported z-score greater than or equal to -0.2 here: `CCOC(=O)C[C@H]1[C@H](OC(=O)c2ccccc2-c2ccccc2)[C@@H](NC(=O)CC(C)C)c2cc(OCCCO)ccc2N1C(=O)c1ccccc1`
Result: not met

Query: Is reported z-score greater than or equal to -0.2 here: `[N-]=[N+]=NCc1ccccc1[C@H]1OC(c2ccc(OCCCO)cc2)=N[C@@]1(Cc1ccccc1N=[N+]=[N-])C(=O)N1CCOCC1`
Result: met

Query: Is reported z-score greater than or equal to -0.2 here: `COc1ccc(-c2cc3c(c(CCc4ccccc4)n2)[Si](C(C)C)(C(C)C)O[C@H]3c2ccccc2)cn1`
Result: met

Query: Is reported z-score greater than or equal to -0.2 here: `CC(C)C(=C=CC[C@H](O)c1cccc(OCCO)c1)C[C@H](O)c1ccccn1`
Result: not met

Query: Is reported z-score greater than or equal to -0.2 here: COC(=O)C1=CC(CCCO)=CC(c2ccc(CN3CCCC3)cc2)N(C)C=C1C(=O)OC (stereo unspecified)
Result: met
